# assayedTarget: EPHB1 (UniProt P54762)
# Sequence (P54762 whole entry, looked up): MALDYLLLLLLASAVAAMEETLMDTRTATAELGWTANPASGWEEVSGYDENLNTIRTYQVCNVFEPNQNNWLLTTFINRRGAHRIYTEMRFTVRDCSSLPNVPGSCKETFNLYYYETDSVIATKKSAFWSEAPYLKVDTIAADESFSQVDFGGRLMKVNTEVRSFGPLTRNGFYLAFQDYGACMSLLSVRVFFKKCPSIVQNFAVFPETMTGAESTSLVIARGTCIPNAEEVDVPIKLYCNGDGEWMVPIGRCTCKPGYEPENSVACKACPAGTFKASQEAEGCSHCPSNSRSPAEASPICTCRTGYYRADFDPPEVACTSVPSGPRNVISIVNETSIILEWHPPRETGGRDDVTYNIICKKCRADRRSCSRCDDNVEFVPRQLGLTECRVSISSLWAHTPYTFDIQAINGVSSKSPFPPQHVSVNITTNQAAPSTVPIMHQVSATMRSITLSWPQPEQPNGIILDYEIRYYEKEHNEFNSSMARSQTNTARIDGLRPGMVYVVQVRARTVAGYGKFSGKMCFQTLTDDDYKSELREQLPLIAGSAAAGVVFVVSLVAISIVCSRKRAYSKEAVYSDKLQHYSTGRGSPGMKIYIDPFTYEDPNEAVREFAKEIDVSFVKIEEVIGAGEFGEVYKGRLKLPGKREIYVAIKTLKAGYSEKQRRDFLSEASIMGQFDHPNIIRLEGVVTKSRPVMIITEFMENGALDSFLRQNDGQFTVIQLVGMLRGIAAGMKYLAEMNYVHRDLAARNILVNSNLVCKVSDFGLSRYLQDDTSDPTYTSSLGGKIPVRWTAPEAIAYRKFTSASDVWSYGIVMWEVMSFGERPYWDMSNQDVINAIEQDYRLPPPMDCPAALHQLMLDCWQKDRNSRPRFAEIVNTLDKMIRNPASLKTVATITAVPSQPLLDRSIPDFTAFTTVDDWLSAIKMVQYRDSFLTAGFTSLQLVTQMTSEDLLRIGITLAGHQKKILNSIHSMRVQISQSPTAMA
# assayProtocol: phosphorylation enrichment, bacterial display (enrichment ratio); higher = better substrate or ligand; peptides without Tyr show the background;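 further: 11-residue human phosphosite peptides and single-mutation variants displayed on the E. coli surface, counted by deep sequencing, each peptide's frequency after selection divided by its frequency in the unselected input library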;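 further: frequency after pTyr selection over input frequency; kinase dosed for 20-30% of maximal phosphorylation in three min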
1 means recorded phosphorylation enrichment is 0.6 or above; -1 means it is below 0.6.

*Q* Textbook exercise: given the entry RAEIVYKSPVV [MAPT_Y711_G706R] , state whether its phosphorylation enrichment is greater than or equal to 0.6.
*A* 1

*Q* Textbook exercise: given the entry LSERGYSFVTT [ACTA2_Y200_T196S] , state whether its phosphorylation enrichment is greater than or equal to 0.6.
*A* 1

*Q* Textbook exercise: given the entry RFLRGYQQDAY [HLA-A_Y137_R138Q] , state whether its phosphorylation enrichment is greater than or equal to 0.6.
*A* -1

*Q* Textbook exercise: given the entry YEKFLYFLPAS [DYNC2H1_Y346_H341Y] , state whether its phosphorylation enrichment is greater than or equal to 0.6.
*A* 1

*Q* Textbook exercise: given the entry IDAVCYFRMEN [NPHS2_Y194_I192V_YF] , state whether its phosphorylation enrichment is greater than or equal to 0.6.
*A* 1

*Q* Textbook exercise: given the entry KMGNEYVTKGQ [MYH7_Y410_V406M] , state whether its phosphorylation enrichment is greater than or equal to 0.6.
*A* -1

*Q* Textbook exercise: given the entry TKQLTYEEQYL [PIK3C3_Y310_D314Y] , state whether its phosphorylation enrichment is greater than or equal to 0.6.
*A* -1

*Q* Textbook exercise: given the entry STAPSYGNPSS [CD19_Y378_G373S] , state whether its phosphorylation enrichment is greater than or equal to 0.6.
*A* -1

*Q* Textbook exercise: given the entry FRQNVYIPGSN [PCDHGA1_Y895_YF] , state whether its phosphorylation enrichment is greater than or equal to 0.6.
*A* -1

*Q* Textbook exercise: given the entry FADTAYNYRHG [PAH_Y166_I164T] , state whether its phosphorylation enrichment is greater than or equal to 0.6.
*A* -1

*Q* Textbook exercise: given the entry RDVEQYVNNVN [PCDH19_Y1097_L1094V] , state whether its phosphorylation enrichment is greater than or equal to 0.6.
*A* -1

*Q* Textbook exercise: given the entry ADYYDYGRGLS [KHDRBS3_Y304_H306R] , state whether its phosphorylation enrichment is greater than or equal to 0.6.
*A* 1

*Q* Textbook exercise: given the entry ADEEYYEIIAA [FEStide_no-pY_2014] , state whether its phosphorylation enrichment is greater than or equal to 0.6.
*A* 1

*Q* Textbook exercise: given the entry RVKPIYFHTQG [AR_Y916_K911R] , state whether its phosphorylation enrichment is greater than or equal to 0.6.
*A* 1

*Q* Textbook exercise: given the entry LFDHIYTTQSD [RET_Y928] , state whether its phosphorylation enrichment is greater than or equal to 0.6.
*A* 1

*Q* Textbook exercise: given the entry LLSVAYKNVVR [YWHAZ_Y48_G53R] , state whether its phosphorylation enrichment is greater than or equal to 0.6.
*A* 1

*Q* Textbook exercise: given the entry ILGLEYSLRLP [HELZ2_Y1304_V1308L] , state whether its phosphorylation enrichment is greater than or equal to 0.6.
*A* 1

*Q* Textbook exercise: given the entry EVQKDYEHLFK [PAM16_Y77_N76D] , state whether its phosphorylation enrichment is greater than or equal to 0.6.
*A* -1

*Q* Textbook exercise: given the entry HPFHVYPQPGM [BAG3_Y114] , state whether its phosphorylation enrichment is greater than or equal to 0.6.
*A* 1

*Q* Textbook exercise: given the entry ESMQSYDLDFP [UNC13B_Y243_D238E_YF] , state whether its phosphorylation enrichment is greater than or equal to 0.6.
*A* -1

*Q* Textbook exercise: given the entry IGEGTYGVVFK [CDK2_Y15_YF] , state whether its phosphorylation enrichment is greater than or equal to 0.6.
*A* 1

*Q* Textbook exercise: given the entry HSDFQYSQRSQ [PKP2_Y168_YF] , state whether its phosphorylation enrichment is greater than or equal to 0.6.
*A* 1

*Q* Textbook exercise: given the entry GNHISYFQSDG [CACNA1C_Y1757_V1755I_YF] , state whether its phosphorylation enrichment is greater than or equal to 0.6.
*A* -1

*Q* Textbook exercise: given the entry FLTSSYINIST [IL23R_Y178_YF] , state whether its phosphorylation enrichment is greater than or equal to 0.6.
*A* -1
